assay: HUVEC growth inhibition – cell-based, human, primary screen (AID 575); details: HUVEC proliferation, CellTiter-Glo luminescence, 72 h; at 10 µM; stronger effect = lower value;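 further: 100% = median of untreated cell wells with 0.1% DMSO on each plate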
Response field label takes class 1 when viability is strictly below 90% and class 0 in all other cases.

Example entries and their recorded answers appear below.
[[record]]
compound = "COCCOC(=O)c1c(C)nc(SCC(=O)Nc2ccc(OC)cc2)c(C#N)c1-c1ccco1"
group = "class 1"

[[record]]
compound = "COC(=O)C1=C(C)Nc2nnnn2C1c1cccs1 (stereo unspecified)"
group = "class 0"


Incoming: Quick check: viability of FC(F)(F)c1cc(-c2ccccc2)nc(N2CCCCC2)n1 under 90%?
Outgoing: class 0

Incoming: # repeat for O=C1CCCC2=C1C(c1ccsc1)CC(=O)N2c1ccccc1 (stereo unspecified)
Outgoing: class 0

Incoming: Try CCCCOc1ccc(-c2nnn(CC(=O)Nc3ncc(CC(=O)OCC)s3)n2)cc1 next.
Outgoing: class 1

* * *

assay: growth suppression of yeast trafficking mutant, preliminary HTS, modulators of trafficking downstream of Golgi apparatus project, 1536-format plate, OD 615 nm (AID 637); settings: yeast transport mutant growth, absorbance 615 nm, 18 h; stronger effect = higher value
Form field: inhibition (one value per entry).
The figure you give is taken to be in %; do not add the unit.

[[record]]
compound = "O=C(Nc1ccc(O)cc1)C1CCCN1S(=O)(=O)c1ccc(F)cc1 (stereo not drawn)"
reported_property = "inhibition"
val = 1.64

[[record]]
compound = "COc1cccc(CNC(=O)C2CCN(S(=O)(=O)c3ccc(F)cc3)CC2)c1"
reported_property = "inhibition"
val = 0.48

[[record]]
compound = "COC(=O)c1cnc2c(C(F)(F)F)cccc2c1OC"
reported_property = "inhibition"
val = -1.31

[[record]]
compound = "CCc1cc2c(CN3CCN(CCO)CC3)cc(=O)oc2cc1O"
reported_property = "inhibition"
val = 1.61

[[record]]
compound = "COc1ccc(N2CCN(C(c3cccs3)c3nnnn3C3CCCC3)CC2)cc1 (stereo not drawn)"
reported_property = "inhibition"
val = -5.87


Pending compound:
Incoming: Please report the recorded inhibition for O=C1CC(N2CCN(C3CCc4ccccc4C3)CC2)C(=O)N1c1ccccc1 (stereo not drawn) .
Outgoing: 3.93

* * *

Parameter: viability. Scope: all listed entries.
assay: reducers of endogenous Her2 protein level, primary screen, SKBR3 breast tumor cells, AlphaScreen, ATP viability (AID 461); conditions: 18-24 h, measured here: SKBR3 viability, ATP luminescence, at 10 µM;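 further: percent of carrier control wells set as 100% viability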

Incoming: Which value of viability has been reported for COc1ccc(OC)c(N(CC(=O)N2CCN(c3cc(Cl)ccc3C)CC2)S(C)(=O)=O)c1 in the records?
Outgoing: 100%

Incoming: Now try Cc1ccc(NC(=O)C2CCCN2S(=O)(=O)c2cccc3cccnc23)cc1F (centres undefined) .
Outgoing: 98%

Incoming: Consider next the compound Cc1nnc2n(Cc3ccccc3)c(=O)c3c4c(sc3n12)COC(C(C)C)C4 (centres undefined) in the same way.
Outgoing: 124%

Incoming: Input Cn1c(=O)c2c(ncn2CC(O)CNc2ccc(Cl)cc2)n(C)c1=O (centres undefined)
Outgoing: 91%

* * *

test: HUVEC growth inhibition – cell-based, human, primary screen (AID 575); conditions: HUVEC proliferation, CellTiter-Glo luminescence, 72 h; at 10 µM; stronger effect = lower value;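 further: 100% = median of untreated cell wells with 0.1% DMSO on each plate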
REPORTED_PROPERTY: viability (%)
Write the number in % without appending the unit.

Examples with answers:
[[record]]
compound = "CC(C)(C)n1nnnc1CN1CCC(NC(=O)NC2CCCCC2)CC1"
measure_unit = "%"
val = 97

[[record]]
compound = "Cc1cc2ncc(C(=O)Nc3ccccc3)c(C)n2n1"
measure_unit = "%"
val = 124

[[record]]
compound = "CCC(Oc1ccc2ccccc2c1)C(=O)O (stereo unspecified)"
measure_unit = "%"
val = 85.6

[[record]]
compound = "O=c1c2cc(N3CCOCC3)ccc2[nH]c(=S)n1CCCN1CCCCC1"
measure_unit = "%"
val = 84.9


Please find the next compound below.
Incoming: If you can, please state the reported viability value of CCCCCCOC(=O)C(C#N)c1nc2ccccc2nc1N1CCCCC1 (stereo unspecified) .
Outgoing: 63.8
